I'd appreciate it if you could supply Array Heatmap value (peptide array binding signal) values for the items below.
# Test system: KDM5B (1)
# PROTOCOL_SUMMARY: Histone peptide microarray
# Type: binding, human
# DETAILS: KDM5B (1), GST-tagged; arrays performed twice, n of 4
Where no end group is shown, it is not given here. [ ]: non-standard residue; d: D form. Arg(Me2a) = CN(C)C(=N)NCCC[C@H](N)C(=O)O; pS = N[C@@H](COP(=O)(O)O)C(=O)O
Give the figure by itself; no unit, no explanation.

# query: Array Heatmap value (peptide array binding signal) of entry H2AS1p + R3me2a + K5ac: H2A 1-17 ([pS]G[Arg(Me2a)]GK(Ac)QGGKARAKAKTR; UniProt P0C0S8 2-18, looked up, fragment)
0.7084

# query: Array Heatmap value (peptide array binding signal) of entry H2AX (S139p): H2AX 132-142 (GKKATQA[pS]QEY; UniProt P16104 133-143, looked up, fragment)
0.697

# query: Array Heatmap value (peptide array binding signal) of entry H4K12ac + KQ5,8,16,20: H4 1-23 (SGRGQGGQGLGK(Ac)GGAQRHRQVLR; UniProt P62805 2-24, looked up, variant K5Q K8Q K16Q K20Q)
0.6598

# query: Array Heatmap value (peptide array binding signal) of entry H2AX (132-142): H2AX 132-142 (GKKATQASQEY; UniProt P16104 133-143, looked up, fragment)
0.6162

# query: Array Heatmap value (peptide array binding signal) of entry H2AR3me2a + K5ac: H2A 1-17 (SG[Arg(Me2a)]GK(Ac)QGGKARAKAKTR; UniProt P0C0S8 2-18, looked up, fragment)
0.6265

# query: Array Heatmap value (peptide array binding signal) of entry H2A.Z (1-19) (N-ac): H2AZ 1-19 (Ac-AGGKAGKDSGKAKTKAVSR; UniProt P0C0S5 2-20, looked up, fragment)
0.624

# query: Array Heatmap value (peptide array binding signal) of entry Myc-Tag: 1-10 (ILKKATAYIL; Myc epitope tag; UniProt P01106 410-419, looked up, fragment)
0.6488

====

# Test system: ING4
# PROTOCOL_SUMMARY: Histone peptide microarray
# Type: binding, human
# DETAILS: ING4, GST-tagged; arrays performed twice, n of 4
Where no end group is shown, it is not given here. [ ]: non-standard residue; d: D form. Arg(Me2a) = CN(C)C(=N)NCCC[C@H](N)C(=O)O; pS = N[C@@H](COP(=O)(O)O)C(=O)O
PROPERTY_LABEL: Array Heatmap value (peptide array binding signal)

# query: Array Heatmap value (peptide array binding signal) of entry H2AX (S139p): H2AX 132-142 (GKKATQA[pS]QEY; UniProt P16104 133-143, looked up, fragment)
0.4783

# query: Array Heatmap value (peptide array binding signal) of entry H2AR3me2a + K5ac: H2A 1-17 (SG[Arg(Me2a)]GK(Ac)QGGKARAKAKTR; UniProt P0C0S8 2-18, looked up, fragment)
0.4409

# query: Array Heatmap value (peptide array binding signal) of entry H2AS1p + R3me2a + K5ac: H2A 1-17 ([pS]G[Arg(Me2a)]GK(Ac)QGGKARAKAKTR; UniProt P0C0S8 2-18, looked up, fragment)
0.4949

# query: Array Heatmap value (peptide array binding signal) of entry H4K12ac + KQ5,8,16,20: H4 1-23 (SGRGQGGQGLGK(Ac)GGAQRHRQVLR; UniProt P62805 2-24, looked up, variant K5Q K8Q K16Q K20Q)
0.4387

Ref: paper PMC6979384
